# Test system: human lung cancer cell line A549
# experiment: MTT-based cytotoxicity assay
# Format: cell-based
# testSettings: A549, up to 100 µg/mL, compared to paclitaxel
propertyLabel: cytotoxicity towards A549 (in words)

In [3]: df
Out[3]:
                                   molecule                         propertylabel    reportedmeasurement
0  COc1cccc(C2CC(c3ccc(-n4cccc4)cc3)=NN2C=O)c1 (stereo not shown)  cytotoxicity towards A549 (in words)  moderate cytotoxicity
1  O=CN1N=C(c2ccc(-n3cccc3)cc2)CC1c1cccc(Br)c1 (stereo not shown)  cytotoxicity towards A549 (in words)  moderate cytotoxicity
2  CC(C)c1ccc(C2CC(c3ccc(-n4cccc4)cc3)=NN2C=O)cc1 (stereo not shown)  cytotoxicity towards A549 (in words)  moderate cytotoxicity
3  O=CN1N=C(c2ccc(-n3cccc3)cc2)CC1c1cccc(Oc2ccccc2)c1 (stereo not shown)  cytotoxicity towards A549 (in words)  moderate cytotoxicity
4  COc1ccc(C2CC(c3ccc(-n4cccc4)cc3)=NN2C=O)c(OC)c1 (stereo not shown)  cytotoxicity towards A549 (in words)  moderate cytotoxicity
5  O=CN1N=C(c2ccc(-n3cccc3)cc2)CC1c1ccc(Cl)cc1 (stereo not shown)  cytotoxicity towards A549 (in words)  moderate cytotoxicity
6  COc1ccc(C2CC(c3ccc(-n4cccc4)cc3)=NN2C=O)cc1OC (stereo not shown)  cytotoxicity towards A549 (in words)  moderate cytotoxicity
